Provide the recorded self-cleavage for the entries that follow.
B1: HDV Ribozyme (parent)
chain: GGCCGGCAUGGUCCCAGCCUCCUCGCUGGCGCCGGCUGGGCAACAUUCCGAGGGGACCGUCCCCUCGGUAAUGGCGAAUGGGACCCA

Variants of: B1
Assay: self-cleavage, relative activity (ratio to wild type); higher = more cleavage; co-transcriptional

Supply self-cleavage value. Item: C7G U65A 0

For the variant G55C A70C , report self-cleavage. 0.932

Output measured self-cleavage for this item: G76U G82A 0.343

Query self-cleavage for G1U A87C 0.408

Answer with reported self-cleavage of C32A G38A 0.0665

Answer with the recorded self-cleavage for the variant listed here: G68A A77C 0.155

Give the value of self-cleavage reported for the following: G5A C57U 0.106

Look up self-cleavage of C33U C44U and report it. 0.543

Fill in self-cleavage for record U60C G80A 0.386

Supply measured self-cleavage of G10C A83C in your reply. 0.0615

Give the reported value of self-cleavage for this record: C48G U72G 0.369

Query self-cleavage for A78C U79C 0.153

# return recorded self-cleavage for entry G35A A70C 0.434

Return self-cleavage for the following variant: C24G U46A 0.0326

Read off the recorded self-cleavage for C30G G82U 0.0627

Supply reported self-cleavage belonging to this variant: C3U C36U 0.356

State, in one line, measured self-cleavage of C3A U12C 0.0615

Give me measured self-cleavage, please, for this variant: G29U G73A 0.0898

Quick one: give measured self-cleavage for G2U G68A 0.0264

Fill in reported self-cleavage for this entry: C44A C61G 0.608

Quote self-cleavage reported for C30A G31C please. 0.115

Given G1C C15G , respond with its self-cleavage. 0.166

Specify self-cleavage for G31A C62A and stop. 0.445

Entry C58U A77G needs its self-cleavage filled in; supply it. 0.929

Give the reported self-cleavage for this variant. G1U G28C 0.185

Please supply the value of reported self-cleavage for the item C33A A45U 0.232

Answer with reported self-cleavage of G1A A87G 0.141

Identify the reported self-cleavage for the following entry. C57G C75G 0.185

Name the recorded self-cleavage of the variant listed here: C21U A87C 0.206

Specify self-cleavage for A56G U60A and stop. 0.914

Report measured self-cleavage; entry is U20C C33U 0.0536

Indicate its recorded self-cleavage; the variant in question is C14A G40A 0.706

Supply recorded self-cleavage for G5U A78G here. 0.332

Report measured self-cleavage; entry is A71C G81C 0.172

Report measured self-cleavage; entry is C36U U60C 0.959

Fill in self-cleavage for record G35C A70U 0.138

Input C13U U27C , output reported self-cleavage. 0.615

Specify self-cleavage for A8U A56C and stop. 1.25

Fill in reported self-cleavage for this entry: U9G C57G 1.19

Supply recorded self-cleavage for C15U G38A here. 0.188

Provide only the value of recorded self-cleavage for C49A C58A 0.986

Cited source for all entries: the RNAGym collection of RNA variant scans (doi:10.7554/elife.80360)
